Origin of values: patent US20240400654A1

# Measurement Target: HRgpA-6H (Porphyromonas gingivalis) (UniProt P28784)
# Assay Procedure: ELISA, coated HRgpA-6H
Measured Property: OD450 nm
Output: the number by itself.

{"columns": ["Binder", "OD450 nm"],
 "data": [
  ["KB001 mouse Fab VH S61C (Fab, V domains shown) VH: EVQLKQSGPGLVAPSQSLSITCTVSGFSLSIYSVHWVRQPPGKGLEWLGMIWGGGSSDYNCALKSRLSISKDNSKSQVFLKMNSLQTDDTAMYYCARNGNFYAMDYWGQGTSVTVSS VL: QIVLTQSPAIMSASLGERVTMTCTASSSVSSSFLHWYQQKPGSSPQLWIYSTSNLASGVPARFSGSGSGTSYSLTISSMEAEDAATYYCHQYHHSPYIYTFGGGTKLEIK", 0.431],
  ["KB001 mouse Fab VH Y59M/S57I (Fab, V domains shown) VH: EVQLKQSGPGLVAPSQSLSITCTVSGFSLSIYSVHWVRQPPGKGLEWLGMIWGGGSIDMNSALKSRLSISKDNSKSQVFLKMNSLQTDDTAMYYCARNGNFYAMDYWGQGTSVTVSS VL: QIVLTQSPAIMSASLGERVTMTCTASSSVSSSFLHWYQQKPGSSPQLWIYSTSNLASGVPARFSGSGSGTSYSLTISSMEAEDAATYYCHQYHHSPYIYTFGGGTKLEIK", 0.701],
  ["KB001 mouse Fab VL A25E (Fab, V domains shown) VH: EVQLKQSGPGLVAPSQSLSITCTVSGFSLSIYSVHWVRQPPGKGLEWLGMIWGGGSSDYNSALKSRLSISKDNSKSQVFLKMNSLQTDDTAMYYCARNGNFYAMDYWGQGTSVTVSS VL: QIVLTQSPAIMSASLGERVTMTCTESSSVSSSFLHWYQQKPGSSPQLWIYSTSNLASGVPARFSGSGSGTSYSLTISSMEAEDAATYYCHQYHHSPYIYTFGGGTKLEIK", 0.655],
  ["KB001 mouse Fab VH S57M (Fab, V domains shown) VH: EVQLKQSGPGLVAPSQSLSITCTVSGFSLSIYSVHWVRQPPGKGLEWLGMIWGGGSMDYNSALKSRLSISKDNSKSQVFLKMNSLQTDDTAMYYCARNGNFYAMDYWGQGTSVTVSS VL: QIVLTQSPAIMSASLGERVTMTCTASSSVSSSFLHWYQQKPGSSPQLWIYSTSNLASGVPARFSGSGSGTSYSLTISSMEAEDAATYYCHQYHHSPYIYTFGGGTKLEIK", 0.748]
]}

Which value of OD450 nm has been reported for KB001 mouse Fab VL S30M (Fab, V domains shown) VH: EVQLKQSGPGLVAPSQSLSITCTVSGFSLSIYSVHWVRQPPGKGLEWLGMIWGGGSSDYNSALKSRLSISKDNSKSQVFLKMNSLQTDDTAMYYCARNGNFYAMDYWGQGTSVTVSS VL: QIVLTQSPAIMSASLGERVTMTCTASSSVMSSFLHWYQQKPGSSPQLWIYSTSNLASGVPARFSGSGSGTSYSLTISSMEAEDAATYYCHQYHHSPYIYTFGGGTKLEIK in the records?
0.818
